The origin of these recorded values is PubChem BioAssay AID588352.

Let's look at some compounds and their measured inhibition.
ASSAY SYSTEM: Nuclear receptor coactivator 3 (Homo sapiens) (UniProt Q9Y6Q9)
Sequence (Q9Y6Q9 whole entry, looked up, the tested form may be a part): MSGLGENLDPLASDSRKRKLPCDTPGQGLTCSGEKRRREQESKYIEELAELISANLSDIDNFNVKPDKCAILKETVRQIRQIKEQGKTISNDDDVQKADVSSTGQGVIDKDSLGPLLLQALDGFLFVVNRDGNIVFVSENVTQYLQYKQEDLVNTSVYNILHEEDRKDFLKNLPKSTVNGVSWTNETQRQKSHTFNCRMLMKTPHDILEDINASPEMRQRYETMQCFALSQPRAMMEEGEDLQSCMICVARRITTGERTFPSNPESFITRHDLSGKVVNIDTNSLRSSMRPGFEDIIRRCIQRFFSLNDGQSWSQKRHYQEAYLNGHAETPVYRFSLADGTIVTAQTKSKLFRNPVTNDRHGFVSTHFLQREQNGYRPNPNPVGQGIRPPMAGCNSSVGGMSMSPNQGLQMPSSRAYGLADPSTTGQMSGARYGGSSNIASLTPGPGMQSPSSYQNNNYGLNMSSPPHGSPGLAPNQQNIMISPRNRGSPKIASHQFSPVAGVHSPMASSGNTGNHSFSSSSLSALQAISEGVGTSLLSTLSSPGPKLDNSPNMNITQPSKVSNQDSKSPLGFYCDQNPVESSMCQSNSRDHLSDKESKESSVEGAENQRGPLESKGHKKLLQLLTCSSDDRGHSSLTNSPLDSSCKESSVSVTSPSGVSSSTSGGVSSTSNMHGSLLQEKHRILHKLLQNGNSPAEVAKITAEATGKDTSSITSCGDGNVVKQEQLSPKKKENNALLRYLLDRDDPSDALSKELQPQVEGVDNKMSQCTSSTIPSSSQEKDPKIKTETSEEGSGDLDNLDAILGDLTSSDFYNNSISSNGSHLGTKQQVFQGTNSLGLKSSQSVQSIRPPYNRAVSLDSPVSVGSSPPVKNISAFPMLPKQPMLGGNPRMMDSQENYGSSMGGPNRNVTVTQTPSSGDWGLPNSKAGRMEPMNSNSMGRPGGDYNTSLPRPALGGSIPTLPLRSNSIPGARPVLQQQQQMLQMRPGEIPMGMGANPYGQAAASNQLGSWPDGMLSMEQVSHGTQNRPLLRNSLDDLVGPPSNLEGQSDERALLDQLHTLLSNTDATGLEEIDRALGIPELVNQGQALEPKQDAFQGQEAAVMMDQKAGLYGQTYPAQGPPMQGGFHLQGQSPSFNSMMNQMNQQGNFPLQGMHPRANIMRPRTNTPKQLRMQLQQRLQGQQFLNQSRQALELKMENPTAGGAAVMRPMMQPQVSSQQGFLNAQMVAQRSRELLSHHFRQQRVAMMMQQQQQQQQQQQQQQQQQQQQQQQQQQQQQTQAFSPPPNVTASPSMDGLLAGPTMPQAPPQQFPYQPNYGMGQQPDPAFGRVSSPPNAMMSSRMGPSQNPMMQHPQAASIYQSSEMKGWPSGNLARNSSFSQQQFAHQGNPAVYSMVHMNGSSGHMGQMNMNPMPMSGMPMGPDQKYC
TEST METHOD NOTES: NCOA3 GAL4-fusion reporter inhibition – cell-based, luminescence, primary screen (AID 588352);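 also: 0% = DMSO-treated cells and 100% = gossypol-treated cells at 36 µM; higher means less SRC3-driven luciferase light from the GAL4 reporter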
TEST CONDITIONS: HEK293 GAL4-SRC3 luciferase reporter, at 3.6 µM, hits give high values
About 620 (0.17%) of roughly 360,000 compounds were called active. The entries come from a sample that favours actives as a whole.
Write it as a number; the unit % goes unstated.

COMPOUND | ASSAY SYSTEM | inhibition (%)
OC(Cn1c2ccccc2c2ccccc21)C[n+]1ccccc1 (stereo not given) | Nuclear receptor coactivator 3 (Homo sapiens) (UniProt Q9Y6Q9) | -8.77
CN(C)P(=S)(Nc1ccccc1)C(Cl)(Cl)Cl (stereo not given) | Nuclear receptor coactivator 3 (Homo sapiens) (UniProt Q9Y6Q9) | 6.36
CCOc1ccc(-c2cc(C)[n+](CCN(CC)CC)c(-c3ccc(OCC)cc3)c2)cc1 | Nuclear receptor coactivator 3 (Homo sapiens) (UniProt Q9Y6Q9) | 78
Fc1cccc(F)c1CN1CCN(Cc2c(F)cccc2F)CC1 | Nuclear receptor coactivator 3 (Homo sapiens) (UniProt Q9Y6Q9) | 28.2

Exercise: What inhibition value was documented for this compound, COC(=O)C1=C(c2ccc(-c3ccccc3)c(F)c2)C[C@@H]2CC[C@H]1N2C(=O)NCc1ccc(F)cc1 ?
Solution: 9.01

----------
Attribute: inhibition
ASSAY SYSTEM: Nuclear receptor coactivator 3 (Homo sapiens)
TEST METHOD NOTES: NCOA3 GAL4-fusion reporter inhibition – cell-based, luminescence, primary screen (AID 588352);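 also: 0% = DMSO-treated cells and 100% = gossypol-treated cells at 36 µM; higher means less SRC3-driven luciferase light from the GAL4 reporter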
TEST CONDITIONS: HEK293 GAL4-SRC3 luciferase reporter, at 3.6 µM, hits give high values
In all, about 360,000 compounds went through this assay and about 620 (0.17%) were called active. The full list was thinned out, with actives kept by preference.
Field format: number, assumed %, no unit text.

Some molecules with recorded inhibition:
MOLECULE | inhibition [%]
CN(C)CCN(CC1CCCN(Cc2ccccc2F)C1)C(=O)Cc1ccc(F)c(F)c1 (stereo not given) | 3.08
COc1cccc(OC)c1C(=O)NC(=S)N1C[C@H]2C[C@H](C1)c1cccc(=O)n1C2 | 19.2
Cn1c(O)c(C=Nc2ccc3c(c2)CCC3)c(=O)n(C)c1=O | -9.05
CCCCCCCCCCCCn1ccc(=N)cc1 | 76.9

# ---- query molecule ----
Exercise: Entry under review: CC(c1ccccc1)(c1ccccc1)c1ccncc1 . Reported inhibition?
Solution: 16.2

----------
Some compounds, each annotated with its measured inhibition.
ASSAY SYSTEM: Nuclear receptor coactivator 3 (Homo sapiens) (UniProt Q9Y6Q9)
TEST METHOD NOTES: NCOA3 GAL4-fusion reporter inhibition – cell-based, luminescence, primary screen (AID 588352);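 also: 0% = DMSO-treated cells and 100% = gossypol-treated cells at 36 µM; higher means less SRC3-driven luciferase light from the GAL4 reporter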
TEST CONDITIONS: HEK293 GAL4-SRC3 luciferase reporter, at 3.6 µM, hits give high values
The campaign covered roughly 360,000 compounds. About 620 (0.17%) were called active. The entries come from a sample that favours actives as a whole.

Examples with answers:
COMPOUND | inhibition
Cn1c(C(=O)N2CCC(C(=O)N3CCC4(CC3)OCCO4)CC2)cc2sccc21 | 6.98% (inactive)
COC1C(O)C(C)OC(OC2CCC3(C=O)C(CCC4C3CCC3(C)C(C5=CC(=O)OC5)CCC43O)C2)C1O (stereo not given) | 90.5% (active)
COc1ccccc1CN1CCN(C(=O)Cc2ccccc2)CC1 | 2.02% (inactive)
CNC(=S)N/N=C1\C2CN3CCN(C2)CC1(c1ccccc1)C3 | 8.65% (inactive)

Exercise: Requested read-out: inhibition. Entry: CCC(C)(O)C(=O)OC1C(=O)OC2CC3C(C)=CC(=O)C(O)C3(C)C3C4(O)OCC23C1C(C)C4O (stereo not given)
Solution: 93.7% (active)
